Value source: patent US20240279318A1

- targetOrTestSystem: RP1 peptide/HLA-A*02:01 complex (recombinant) (human, UniProt P16213 21-119 (Pongo pygmaeus entry))
- assayDetails: SPR

binder: AS170036 VL1VH1-VHG108E (scFv) scFv: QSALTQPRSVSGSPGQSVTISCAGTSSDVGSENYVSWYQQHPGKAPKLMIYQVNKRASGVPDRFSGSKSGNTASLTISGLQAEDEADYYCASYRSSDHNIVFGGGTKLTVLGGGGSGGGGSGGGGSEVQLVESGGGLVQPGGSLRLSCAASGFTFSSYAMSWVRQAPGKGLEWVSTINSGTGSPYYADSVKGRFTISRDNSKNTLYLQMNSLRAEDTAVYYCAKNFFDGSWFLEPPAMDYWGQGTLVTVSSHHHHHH
binding result: no binding
--
binder: AS170036 VL1VH1-VLH98T (scFv) scFv: QSALTQPRSVSGSPGQSVTISCAGTSSDVGSENYVSWYQQHPGKAPKLMIYQVNKRASGVPDRFSGSKSGNTASLTISGLQAEDEADYYCASYRSSDTNIVFGGGTKLTVLGGGGSGGGGSGGGGSEVQLVESGGGLVQPGGSLRLSCAASGFTFSSYAMSWVRQAPGKGLEWVSTINSGTGSPYYADSVKGRFTISRDNSKNTLYLQMNSLRAEDTAVYYCAKNFFDGSWFLGPPAMDYWGQGTLVTVSSHHHHHH
binding result: no binding
